- test_description: Octanol/water distribution coefficient at pH 7.4
- Type: physicochemical

cpd_smiles	logD
C[C@@H](NCc1cc(I)cc2[nH]c(=O)c(=O)[nH]c12)P(=O)(O)O	-2.5

---

- test_description: Octanol/water distribution coefficient at pH 4
- Format: physicochemical

cpd_smiles	logD
C[C@@H](NCc1cc(I)cc2[nH]c(=O)c(=O)[nH]c12)P(=O)(O)O	-1.2

---

- test_description: Octanol/water distribution coefficient at pH 4.8
- Format: physicochemical

cpd_smiles	logD
C[C@@H](NCc1cc(I)cc2[nH]c(=O)c(=O)[nH]c12)P(=O)(O)O	-1.5

---

- test_description: Octanol/water distribution coefficient at pH 7.5
- Format: physicochemical

cpd_smiles	logD
C[C@@H](NCc1cc(I)cc2[nH]c(=O)c(=O)[nH]c12)P(=O)(O)O	-1.8

---

- test_description: Octanol/water distribution coefficient at pH 6.5
- Type: physicochemical
outcome_measure: logD

cpd_smiles	outcome_measure	experimental_value
C[C@@H](NCc1cc(I)cc2[nH]c(=O)c(=O)[nH]c12)P(=O)(O)O	logD	-1.7

---

- assay_target: Glutamate [NMDA] receptor
- test_description: Compound has been evaluated for its binding affinity towards N-methyl-D-aspartate glutamate receptor by displacing the radioligand [3H]CGP-39653
- Type: protein-complex assay
pIC50: −log10 of the molar value.

cpd_smiles	pIC50
C[C@@H](NCc1cc(I)cc2[nH]c(=O)c(=O)[nH]c12)P(=O)(O)O	< 5.00
C[C@@H](NCc1cc(Br)cc2nc(O)c(O)nc12)P(=O)(O)O	< 5.00

---

- assay_target: Glutamate receptor ionotropic kainate
- test_description: Compound has been evaluated for its binding affinity towards kainate by displacing the radioligand [3H]kainate
pIC50: −log10 of the molar value.

cpd_smiles	pIC50
C[C@@H](NCc1cc(Br)cc2nc(O)c(O)nc12)P(=O)(O)O	5.57

---

The entries below are paired with their reported IC50.
- assay_target: Glutamate receptor ionotropic AMPA (Homo sapiens, UniProt P42261+P42262+P42263+P48058)
- test_description: Compound has been evaluated for its binding affinity towards Ionotropic glutamate receptor AMPA by displacing the radioligand [3H]AMPA
outcome_measure: IC50 (µM)

cpd_smiles	outcome_measure	experimental_value
C[C@@H](NCc1cc(I)cc2[nH]c(=O)c(=O)[nH]c12)P(=O)(O)O	IC50	0.34
C[C@@H](NCc1cc(Br)cc2nc(O)c(O)nc12)P(=O)(O)O	IC50	3

---

- assay_target: Glutamate [NMDA] receptor
- test_description: Compound has been evaluated for its binding affinity towards N-methyl-D-aspartate glutamate receptor by displacing the radioligand [3H]MK-801
- Format: protein-complex assay

cpd_smiles	IC50
C[C@@H](NCc1cc(I)cc2[nH]c(=O)c(=O)[nH]c12)P(=O)(O)O	> 10 µM
C[C@@H](NCc1cc(Br)cc2nc(O)c(O)nc12)P(=O)(O)O	> 10 µM
